Cited source for all entries: paper PMC4429812

- MEASURED TARGET: T1, clathrin N-terminal domain (TD) of the clathrin heavy chain, bovine, residues 1-363 (bovine, UniProt P49951 1-363)
- T1 sequence (looked up): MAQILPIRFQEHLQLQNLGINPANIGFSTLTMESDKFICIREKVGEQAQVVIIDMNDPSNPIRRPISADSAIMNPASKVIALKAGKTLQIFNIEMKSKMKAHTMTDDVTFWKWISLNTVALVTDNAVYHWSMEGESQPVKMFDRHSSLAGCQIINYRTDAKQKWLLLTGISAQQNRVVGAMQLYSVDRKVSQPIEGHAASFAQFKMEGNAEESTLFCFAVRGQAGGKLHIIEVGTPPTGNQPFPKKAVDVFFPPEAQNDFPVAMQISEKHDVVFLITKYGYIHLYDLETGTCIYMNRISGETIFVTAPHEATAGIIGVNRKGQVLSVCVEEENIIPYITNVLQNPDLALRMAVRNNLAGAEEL
- PROTOCOL DESCRIPTION: NMR titration
METRIC NAME: Kd (µM)
Record the value in µM, omitting the unit from your answer.

Reported Kd, binder CPQAVASSSASADLLAGFGGSFMAPS [AP180 peptide 2 (residues 655-679 of mouse AP180)] : ____
899

Would you mind doing CSPAKAESSGVIDLFGDAFGSGASETQ [AP180 peptide 1 (residues 627-652 of mouse AP180)] as well?
829

What would you report for CQVIPSQGDLLGDLLNLDLGPPVNVPQ [AP2 peptide (clathrin-box peptide from the hinge of the AP2 β2 subunit, residues 619-644)] ?
867
